Assay: chemical genetic growth profiling, strain panel (AID 1159580);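 further: tested at 20 µM; growth read once vehicle control cultures reached saturation at 30 °C; 1 = growth at the plate median or of vehicle wells; lower values mean less growth of the strain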
Conditions: S. cerevisiae deletion strains, growth OD, locus YGR078C, strain PAC10, stronger effect = lower value
The whole screen tested about 5,500 compounds, of which about 2,000 (36%) were called active. Roughly 18% stayed inconclusive and do not appear here. The list shows a part of the results.
Threshold 1: normalized growth strictly smaller gives 1 (yes), otherwise 0 (no).

COMPOUND: O=C1CC(c2ccccc2)=NO1
CLASSIFICATION: 1 (yes)
--
COMPOUND: Cc1ccc(C(C)C)cc2c(C)ccc1-2
CLASSIFICATION: 1 (yes)
--
COMPOUND: C[C@](N)(Cc1ccc(O)c(O)c1)C(=O)O
CLASSIFICATION: 1 (yes)
--
COMPOUND: CCN(CC)CCOC(=O)C(Cc1cccc2ccccc12)CC1CCCO1 (configuration not stated)
CLASSIFICATION: 0 (no)

Attention now shifts to the item below.
Req: Determine whether this compound shows normalized growth lower than 1 (ties excluded): Cc1cccc2nc(-c3ccccc3)oc(=O)c12
Resp: 1 (yes)
